Recorded values, source patent US20220324953A1.

Target: T1, human CTGF (antigen of the Biacore assays) (human, UniProt P29279 27-349)
T1 construct: also called antigen human CTGF; human CTGF protein
T1 sequence (looked up): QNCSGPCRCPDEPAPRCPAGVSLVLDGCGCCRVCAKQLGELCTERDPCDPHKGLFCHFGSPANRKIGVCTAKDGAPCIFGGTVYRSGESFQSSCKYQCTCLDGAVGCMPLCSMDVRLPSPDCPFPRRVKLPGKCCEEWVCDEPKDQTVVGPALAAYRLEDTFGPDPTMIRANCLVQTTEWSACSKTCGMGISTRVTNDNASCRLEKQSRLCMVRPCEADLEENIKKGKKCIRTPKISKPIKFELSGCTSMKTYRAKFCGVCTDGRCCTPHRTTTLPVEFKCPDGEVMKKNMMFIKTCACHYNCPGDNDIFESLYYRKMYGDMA
Assay: Biacore, antibody captured on Protein A, CTGF in flow, 1:1 fit
value.kind: kon (M⁻¹ s⁻¹)
// units = M⁻¹ s⁻¹; emit number, no label

q: Determine from records and report kon for Hu147-11wk (antibody, human IgG1, kappa, V domains shown) VH: EVQLVESGGGLVQPGGSLRLSCAASGFTFSTYAMNWVRQAPGKGLEWVGRIRTKSNNYATYYADSVKDRFTISRDDSKNSLYLQMNSLKTEDTAVYYCVETGFAYWDQGTLVTVSS VL: EIVLTQSPATLSLSPGERATLSCSASSSVSYMHWFQQKPGQSPRLLIYSTSNLASGIPARFSGSGSGTDYTLTISSLEPEDFAVYYCQQRSSYPLTFGQGTKLEIKR
a: 2.98e+07

Now let's try a different one.
q: Determine from records and report kon for Hu147-13wk (antibody, human IgG1, kappa, V domains shown) VH: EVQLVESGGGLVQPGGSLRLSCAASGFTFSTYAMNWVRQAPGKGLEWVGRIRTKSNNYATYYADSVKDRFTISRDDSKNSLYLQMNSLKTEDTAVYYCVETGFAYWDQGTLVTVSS VL: EIVLTQSPATLSLSPGERATLSCSASSSVSYMHWFQQKPGQSPKLWIYSTSNLASGVPARFSGSGSGTDYTLTISSLEPEDFAVYYCQQRSSYPLTFGQGTKLEIKR
a: 2.97e+07
